Assignment: determine reported EC50 for the given binders.
target: T1, Human-Fc-tagged SARS-CoV2 S1 recombinant protein (Sino Biologicals) (SARS-CoV-2, UniProt P0DTC2 16-685); assay: ELISA on coated S1-hFc, 3 µg/ml; rabbit antibody in B-cell supernatant
T1 construct: domain: S1; Bought reagent
Answers are plain numbers, in µg/mL.

binder | EC50 (µg/mL)
P043.A.00047.H08 (protein sample ID 447) (antibody, V domains shown, also called antibody with the Protein sample ID 447) VH: QSLEESGGDLVKPGASLTLTCTASGFSFSSDGMCWVRQAPGKGLEWIACIAAGSSGSTYYATWAQGRFTISKSSSTTVTLQMTSLTAADTATYFCAGEDYTGNNYYALWGPGTLVTVSS VL: AIDMTQTPSPVSAVVGDTVTINCQASENIYSFLAWYQQKPGQPPKLLIYFASKLASGVPSRFKGSGSGTQFTLTISDVHSDDAAIYYCQQTGTYSDADNTFGGGTEVVVK | 0.0195
P043.A.00018.C02 (protein sample ID 450) (antibody, V domains shown) VH: QSVEESGGRLVTPGTPLTLTCTVSGFSLSSYAMSWVRQAPGKGLEWIGIINSGRSTYYASWAKGRFTISKTSTTVDLKITSPTTEDTATYFCARDATSIGYYRYYGMDPWGPGTLVTVSS VL: AIQMTQSPSSLAASVGDTVTITCKASEDIGYGLNWYQQKLGIAPKLLIYGANTLESGVPSRFSGSGSETDYTLTISSVQAEDAGIYYCQQGYSTPLTFGAGTKVEIK | 0.0017

Please state EC50 for every binder in the list that follows.
1. P043.A.00024.C11 (protein sample ID 451) (antibody, V domains shown) VH: QSVEESGGRLVTPGTPLTLTCTVSGFSLSSYAMSWVRQAPGKGLEWIGIISSSGTTYYASWAKGPFTISKTSTTVDLKITSPTTEDTATYFCARGGAGYGYAHYYGMDPWGPGTLVTVSS VL: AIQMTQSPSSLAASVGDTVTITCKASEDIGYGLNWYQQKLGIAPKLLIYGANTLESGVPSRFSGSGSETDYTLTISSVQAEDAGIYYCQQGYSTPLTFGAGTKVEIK
2. P043.A.00032.C04 (antibody, V domains shown, also called 452; protein sample ID 452) VH: QSLEESGGRLVTPGTPLTLTCTASGFSLSSYWMSWVRQAPGKGLEWIGIIYVSGSTYYASWAKGRFTISKTSTTVDLKMTSLTTEDTATYFCARVDYSTGWPLFNIWGPGTLVTVSL VL: AQVLTQTASPVSAAVGGTVTINCQSSQSVYDNNWLGWYQQKPGQPPKLLIYGASILASGVPSRFKGSGSGTQFTLTISDLESDDAATYYCQGGCSGNTFVFGGGTEVVVK
3. P043.A.00020.D06 (protein sample ID 444) (antibody, V domains shown) VH: QSVEESGGRLVTPGTPLTLTCTVSGFSLSSYAMNWVRQAPGKGLEWIGIISSSGSTYYASWAKGRFTISKTSTTVDLKITSPTTEDTATYFCARVGAGYAGYGYDNYYGMDPWGPGTLVTVSS VL: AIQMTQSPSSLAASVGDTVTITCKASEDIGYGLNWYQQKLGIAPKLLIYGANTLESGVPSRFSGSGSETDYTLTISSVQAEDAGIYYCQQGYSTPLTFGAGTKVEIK
4. P043.A.00023.E05 (antibody, V domains shown, also called 443; protein sample ID 443) VH: QSLEESGGRLVTPGTPLTLTCTVSGFSLSSYAMSWVRQAPGKGLEWIGIISSSGSTYYASWAKGRFTISKTSTTVDLKITSPTTEDTATYFCARDASSRGYYYYYGMDPWGPGTLVTVSS VL: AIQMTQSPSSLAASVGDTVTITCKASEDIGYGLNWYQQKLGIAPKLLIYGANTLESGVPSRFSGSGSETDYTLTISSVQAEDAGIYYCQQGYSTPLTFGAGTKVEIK
5. P043.A.00036.C07 (antibody, V domains shown, also called 448; protein sample ID 448) VH: QSLEESGGDLVKPGASLTLTCTASGFSFSSSYWICWVRQAPGKGLEWIGCIYTGSGSTWYASWAKGRFTISKTSSTTVTLQMTSLTAADTATYFCARGYGSYMYDFWGPGTLVTVSS VL: DVVMTQTPASVEAAVGGTVTIKCQASQSISTALAWYQQKPGQPPKLLIYSASTLESGVPSRFKGSGSGTEFTLAISDLESADAATYYCQGADGSSSSFGGGTEVVVK

Result ::
[0.0048, 0.0265, 0.0057, 0.0166, 0.0387]
